- target.entity: CDK4/Cyclin D3 complex (Homo sapiens)
- Sequence (P11802 whole entry): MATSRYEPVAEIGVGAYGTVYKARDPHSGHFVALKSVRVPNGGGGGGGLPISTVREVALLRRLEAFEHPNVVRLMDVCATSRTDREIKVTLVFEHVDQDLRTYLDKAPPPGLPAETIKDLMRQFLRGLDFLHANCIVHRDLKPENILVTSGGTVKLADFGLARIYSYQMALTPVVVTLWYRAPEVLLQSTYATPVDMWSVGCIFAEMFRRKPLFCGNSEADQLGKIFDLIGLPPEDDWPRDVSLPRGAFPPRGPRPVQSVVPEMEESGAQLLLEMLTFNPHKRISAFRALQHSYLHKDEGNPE
- Sequence (P30281 whole entry partner): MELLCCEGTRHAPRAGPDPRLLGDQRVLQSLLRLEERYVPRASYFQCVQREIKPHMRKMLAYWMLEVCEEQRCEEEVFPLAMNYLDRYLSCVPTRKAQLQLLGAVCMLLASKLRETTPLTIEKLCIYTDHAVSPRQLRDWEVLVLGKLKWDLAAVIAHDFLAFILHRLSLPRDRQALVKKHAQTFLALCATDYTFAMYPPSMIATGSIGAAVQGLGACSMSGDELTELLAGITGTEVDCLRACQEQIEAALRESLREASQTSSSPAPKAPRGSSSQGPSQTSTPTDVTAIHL
- test.method.notes: biochemical
property: pKi
Remember the convention: pKi equals -log10 of concentration in molar.

Item Clc1cccc(/C=C/c2n[nH]c3cc(-c4ccncc4)ccc23)c1 [Reference Example 29(i)] ; assay system CDK4/Cyclin D3 complex (Homo sapiens); pKi reported as 5.30

---

- target.entity: unphosphorylated VEGF-R2Δ50 (Homo sapiens, UniProt P35968, DEL940-989/E990V)
- Sequence (P35968 with tags, fused parts or gaps DEL940-989/E990V limits assumed): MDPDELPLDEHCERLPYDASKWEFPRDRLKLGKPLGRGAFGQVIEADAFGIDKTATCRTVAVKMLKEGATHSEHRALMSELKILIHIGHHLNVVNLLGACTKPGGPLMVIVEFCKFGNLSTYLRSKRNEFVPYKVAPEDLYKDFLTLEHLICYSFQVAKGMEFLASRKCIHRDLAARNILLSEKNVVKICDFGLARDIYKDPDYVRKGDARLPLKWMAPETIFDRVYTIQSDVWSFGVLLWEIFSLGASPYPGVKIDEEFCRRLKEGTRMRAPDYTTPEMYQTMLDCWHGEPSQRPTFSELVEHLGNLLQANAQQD
- test.method.notes: biochemical
- applied.conditions: read-out: FLVK ** (% inhibition)
property: inhibition at 0.05 µM (%)
Provide only the numeric value, understood in %.

| molecule | target.entity | meas.value |
| --- | --- | --- |
| C#CCNC(=O)c1ccccc1Sc1ccc2c(/C=C/c3ccccn3)n[nH]c2c1 [Reference Example 35(cc)] | unphosphorylated VEGF-R2Δ50 (Homo sapiens, UniProt P35968, DEL940-989/E990V) | 89 |
| O=C(c1cccc(NC(=O)c2cc(Cl)ccn2)c1)c1ccc2c(/C=C/c3ccccn3)n[nH]c2c1 [Reference Example 41(z)] | unphosphorylated VEGF-R2Δ50 (Homo sapiens, UniProt P35968, DEL940-989/E990V) | 100 |
| N#CCNC(=O)c1ccccc1Sc1ccc2c(/C=C/c3ccccn3)n[nH]c2c1 [Reference Example 35(w)] | unphosphorylated VEGF-R2Δ50 (Homo sapiens, UniProt P35968, DEL940-989/E990V) | 59 |

Form field, inhibition at 0.05 µM with unphosphorylated VEGF-R2Δ50 (Homo sapiens, UniProt P35968, DEL940-989/E990V), item Cn1ccnc1/C=N/NC(=O)c1ccccc1Sc1ccc2c(/C=C/c3ccccn3)n[nH]c2c1 [Reference Example 36(a)] : 87

---

- test.method.notes: in vitro
- Type: in vitro ADME, human
- applied.conditions: human liver microsomes, 5 µM test compound, 37 °C, 2 h; read-out: % remain (HLM, 2 h)
property: remaining at 2 h, 5 µM (%)
Value expressed in %; do not type the unit.

| molecule | remaining at 2 h, 5 µM, % |
| --- | --- |
| Cc1cc(C(=O)Nc2cccc(C(=O)c3ccc4c(/C=C/c5ccccn5)n[nH]c4c3)c2)nn1C [Reference Example 41(i)] | 48 |

So, O=C(Nc1cccc(C(=O)c2ccc3c(/C=C/c4ccccc4)n[nH]c3c2)c1)c1ccncc1 [19(j)] ? Its remaining at 2 h, 5 µM was 66

Form field remaining at 2 h, 5 µM, entry O=C(Nc1cccc(Oc2ccc3c(/C=C/c4ccc(Cl)cc4)n[nH]c3c2)c1)c1ccccc1 [6(a)] : 69

remaining at 2 h, 5 µM measured on O=C(Cc1ccccn1)Nc1cccc(C(=O)c2ccc3c(/C=C/c4ccccc4)n[nH]c3c2)c1 [19(g)] = 90

---

- target.entity: human FGF-R1 (Homo sapiens, UniProt P11362, C488A/C584S/L457V)
- Sequence (P11362 456-766 L457V/C488A/C584S): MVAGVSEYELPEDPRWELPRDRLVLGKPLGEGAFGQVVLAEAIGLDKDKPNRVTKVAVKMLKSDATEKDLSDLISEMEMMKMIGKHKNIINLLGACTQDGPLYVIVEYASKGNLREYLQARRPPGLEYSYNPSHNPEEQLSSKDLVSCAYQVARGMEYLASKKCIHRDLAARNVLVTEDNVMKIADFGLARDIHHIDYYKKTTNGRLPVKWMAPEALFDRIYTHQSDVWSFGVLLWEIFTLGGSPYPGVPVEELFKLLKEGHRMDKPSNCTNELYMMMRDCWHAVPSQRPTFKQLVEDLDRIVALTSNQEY
- test.method.notes: FGF-R spectrophotometric assay
- Assay type: biochemical
- applied.conditions: Table 1; compound concentration 1 µM; read-out: FGF-P* (% inhibition)
Classification field: t = inhibition at 1 µM at or over 70%; f = inhibition at 1 µM under 70%.

Solved entries:
| compound | assigned.label |
| --- | --- |
| Cc1ccc2cc(NC(=O)c3ccccc3Sc3ccc4c(/C=C/c5ccccn5)n[nH]c4c3)ccc2n1 [Reference Example 33(b)] | t |
| O=C(NNC(=O)c1ccccc1Sc1ccc2c(/C=C/c3ccccn3)n[nH]c2c1)c1cccs1 [Reference Example 35(m)] | t |
| Cc1cc(C(=O)Nc2cccc(C(=O)c3ccc4c(/C=C/c5ccccn5)n[nH]c4c3)c2)on1 [Reference Example 41(m)] | f |

Inquiry: Decide: is the reported value of inhibition at 1 µM for O=C(NCCc1cccs1)c1ccccc1Sc1ccc2c(/C=C/c3ccccn3)n[nH]c2c1 [Reference Example 35(hh)] equal to or greater than 70%?
Reply text: t

Inquiry: Given the entry Cc1cnc(C(=O)Nc2cccc(N(C)c3ccc4c(/C=C/c5ccccc5)n[nH]c4c3)c2)s1 , answer whether its inhibition at 1 µM meets or surpasses 70%.
Reply text: f

Inquiry: Is the recorded value of inhibition at 1 µM equal to or greater than 70% for this compound? CN(c1cccc(NC(=O)c2ccccc2)c1)c1ccc2c(/C=C/c3ccc4c(c3)OCO4)n[nH]c2c1
Reply text: f

---

- applied.conditions: mouse, in vivo, po, 50 mg/kg, pH 2.3
# T1/2 >= 1 h gives Fulfilled, anything below gives Not fulfilled

# count of solved cases: 10
| compound | assigned.label |
| --- | --- |
| O=C(Nc1cccc(C(=O)c2ccc3c(/C=N/n4cccc4)n[nH]c3c2)c1)c1ccccc1 | Fulfilled |
| O=C(NCc1ccccc1F)c1ccccc1Sc1ccc2c(/C=C/c3ccccn3)n[nH]c2c1 | Fulfilled |
| O=C(c1cccc(NC(=O)c2cccc3[nH]ccc23)c1)c1ccc2c(/C=C/c3ccccn3)n[nH]c2c1 | Fulfilled |
| O=C(NCC(F)(F)F)c1ccccc1Sc1ccc2c(/C=C/c3ccccn3)n[nH]c2c1 | Not fulfilled |
| O=C(c1cccc(NC(=O)c2ccccn2)c1)c1ccc2c(/C=C/c3ccccn3)n[nH]c2c1 | Not fulfilled |
| Cn1cccc1C(=O)NNC(=O)c1ccccc1Sc1ccc2c(/C=C/c3ccccn3)n[nH]c2c1 [35 (e)] | Not fulfilled |
| O=C(NC1CC1)c1ccccc1Sc1ccc2c(/C=C/c3ccccn3)n[nH]c2c1 [33 (e)] | Not fulfilled |
| C/C=C/C(=O)Nc1cccc(C(=O)c2ccc3c(/C=C/c4ccccn4)n[nH]c3c2)c1 | Fulfilled |
| CCOCCNC(=O)c1ccccc1Sc1ccc2c(/C=C/c3ccccn3)n[nH]c2c1 [35 (z)] | Fulfilled |
| C=CCONC(=O)c1ccccc1Sc1ccc2c(/C=C/c3ccccn3)n[nH]c2c1 | Fulfilled |

Inquiry: Evaluate O=C(Nc1cccc(C(=O)c2ccc3c(/C=C/c4ccccn4)n[nH]c3c2)c1)c1ccccc1 : T1/2 at minimum 1 h?
Reply text: Fulfilled

Inquiry: Entry O=C(Nc1nccs1)c1ccccc1Sc1ccc2c(/C=C/c3ccccn3)n[nH]c2c1 : is its T1/2 no less than 1 h?
Reply text: Fulfilled

Inquiry: Record CC(C)ONC(=O)c1ccccc1Sc1ccc2c(/C=C/c3ccccn3)n[nH]c2c1 ; criterion: T1/2 no lower than 1 h. Met?
Reply text: Fulfilled

Inquiry: Could you verify whether the entry CC(C)NC(=O)c1ccccc1Sc1ccc2c(/C=C/c3ccccn3)n[nH]c2c1 shows T1/2 of no less than 1 h?
Reply text: Not fulfilled

---

- target.entity: phosphorylated Tie-2 (aa 775-1122) (Homo sapiens)
- Construct: 4 to 12 nM phosphorylated Tie-2 (aa 775-1122); made in house; host or cells: insect cells
- Sequence (Q02763 775-1122): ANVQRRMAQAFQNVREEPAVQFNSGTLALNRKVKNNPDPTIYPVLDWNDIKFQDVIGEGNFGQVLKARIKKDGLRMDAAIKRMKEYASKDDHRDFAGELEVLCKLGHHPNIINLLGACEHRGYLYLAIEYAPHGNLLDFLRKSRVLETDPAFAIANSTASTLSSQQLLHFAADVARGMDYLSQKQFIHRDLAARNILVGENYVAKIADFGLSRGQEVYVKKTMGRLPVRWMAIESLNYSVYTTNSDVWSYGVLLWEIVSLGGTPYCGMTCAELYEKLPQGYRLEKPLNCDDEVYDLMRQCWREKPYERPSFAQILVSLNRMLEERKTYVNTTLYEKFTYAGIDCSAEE
- test.method.notes: TIE-2 spectrophotometric assay
- Type: biochemical
- applied.conditions: Table 5; 1 µM; bold values spectrophotometric assay, non-bolded DELFIA assay (bold not visible here); read-out: % Inhibition @ 1 µM Tie2-P
property: inhibition at 1 µM (%)
Reply numerically in %, unit not repeated.

The recorded inhibition at 1 µM for CC(=O)Nc1cccc(C(=O)c2ccc3c(/C=C/c4ccccc4)n[nH]c3c2)c1 [19(a)] is 18

The reported value for CCn1nc(C)cc1C(=O)Nc1cc(Nc2ccc3c(/C=C/c4ccccn4)n[nH]c3c2)c(F)cc1C [Example 48(a)] in terms of inhibition at 1 µM is 52

Lab note: measured inhibition at 1 µM of Cc1cnc(C(=O)Nc2cccc(Oc3ccc4c(/C=C/c5ccccc5)n[nH]c4c3)c2)s1 [5(a)] was 44

The compound listed as C#CCNC(=O)c1ccccc1Sc1ccc2c(/C=C/c3ccccn3)n[nH]c2c1 [Reference Example 35(cc)] shows inhibition at 1 µM equal to 47

---

- test.method.notes: in vitro
- Format: in vitro ADME, human
- applied.conditions: human liver microsomes, 5 µM test compound, 37 °C, 2 h
Some compounds, each annotated with its measured % remain (HLM, 2 h).
The figure you give is taken to be in %; do not add the unit.

Below: 4 compounds and their reported % remain (HLM, 2 h).
| compound | scale.unit | meas.value |
| --- | --- | --- |
| O=C(c1cccc(NC(=O)c2cccc3[nH]ccc23)c1)c1ccc2c(/C=C/c3ccccc3)n[nH]c2c1 [19(f)] | % | 98 |
| O=C(NCC1CC1)c1ccccc1Sc1ccc2c(/C=C/c3ccccn3)n[nH]c2c1 [Reference Example 35(v)] | % | 26 |
| O=C(Nc1nccs1)c1ccccc1Sc1ccc2c(/C=C/c3ccccn3)n[nH]c2c1 [Reference Example 35(y)] | % | 7 |
| CONC(=O)c1ccccc1Sc1ccc2c(/C=C/c3ccccn3)n[nH]c2c1 [Reference Example 35(r)] | % | 51 |

Just so you know, measured % remain (HLM, 2 h) for O=C(NC1CC1)c1ccccc1Sc1ccc2c(/C=C/c3ccccn3)n[nH]c2c1 [Reference Example 33(e)] came out at 54

C=CCn1nc(C)cc1C(=O)Nc1cccc(C(=O)c2ccc3c(/C=C/c4ccccn4)n[nH]c3c2)c1 [Reference Example 41(t)] yielded % remain (HLM, 2 h) of 87

For this compound ( C=C(C)CNC(=O)c1ccccc1Sc1ccc2c(/C=C/c3ccccn3)n[nH]c2c1 [Reference Example 35(ee)] ), measured % remain (HLM, 2 h) is 13

Sample CCONC(=O)c1ccccc1Sc1ccc2c(/C=C/c3ccccn3)n[nH]c2c1 [Reference Example 35(dd)] ; % remain (HLM, 2 h) observed: 26

Entry CC(C)ONC(=O)c1cccc(F)c1Sc1ccc2c(/C=C/c3ccccn3)n[nH]c2c1 [Reference Example 37(c)] , % remain (HLM, 2 h) reported as 21

So for CCOCCNC(=O)c1ccccc1Sc1ccc2c(/C=C/c3ccccn3)n[nH]c2c1 [Reference Example 35(z)] , the logged % remain (HLM, 2 h) turned out to be 2
